- tested system: human calcium receptor (Homo sapiens, UniProt P41180, R990G)
- Construct: expressed in transfected cells; host or cells: HEK 293
- Sequence (P41180 20-1078 R990G): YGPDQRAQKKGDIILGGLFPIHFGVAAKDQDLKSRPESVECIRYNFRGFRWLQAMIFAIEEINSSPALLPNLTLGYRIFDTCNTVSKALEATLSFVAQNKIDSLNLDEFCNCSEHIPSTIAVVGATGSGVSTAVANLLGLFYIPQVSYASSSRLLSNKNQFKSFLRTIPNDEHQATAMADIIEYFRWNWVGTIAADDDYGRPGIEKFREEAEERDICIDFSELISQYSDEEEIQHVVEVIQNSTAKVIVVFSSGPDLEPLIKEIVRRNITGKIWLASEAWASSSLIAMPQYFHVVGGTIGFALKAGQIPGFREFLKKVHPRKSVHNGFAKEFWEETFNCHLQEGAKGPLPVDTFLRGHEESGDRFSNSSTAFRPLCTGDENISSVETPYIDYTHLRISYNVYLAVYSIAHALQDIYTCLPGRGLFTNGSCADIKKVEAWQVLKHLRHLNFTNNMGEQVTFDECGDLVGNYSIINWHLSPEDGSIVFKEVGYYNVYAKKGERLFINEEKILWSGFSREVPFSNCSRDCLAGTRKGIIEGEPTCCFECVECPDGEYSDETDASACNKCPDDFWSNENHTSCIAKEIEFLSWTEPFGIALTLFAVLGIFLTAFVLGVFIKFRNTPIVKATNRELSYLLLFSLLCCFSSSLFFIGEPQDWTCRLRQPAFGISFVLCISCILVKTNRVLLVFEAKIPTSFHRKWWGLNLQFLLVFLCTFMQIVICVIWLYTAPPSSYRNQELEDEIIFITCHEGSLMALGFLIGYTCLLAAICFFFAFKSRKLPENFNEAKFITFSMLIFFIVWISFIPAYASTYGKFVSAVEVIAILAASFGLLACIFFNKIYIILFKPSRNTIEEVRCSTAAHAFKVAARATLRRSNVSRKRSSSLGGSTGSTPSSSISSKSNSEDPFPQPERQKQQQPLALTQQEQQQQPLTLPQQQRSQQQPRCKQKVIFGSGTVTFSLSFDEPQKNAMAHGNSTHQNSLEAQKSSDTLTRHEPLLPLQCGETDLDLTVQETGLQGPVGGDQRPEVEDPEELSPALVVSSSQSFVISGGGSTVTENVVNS
- protocol description: increases in [Ca^2+ ]i in HEK-293 cells expressing the human calcium receptor (fura-2 loaded HEK 293/pHuPCaR4.0 cells), % activity
- Assay type: cell-based
- condition label: 33 ng/mL
Item-by-item account of % activity
Report the figure in % without appending any unit label.

In the examples that follow, each entry is paired with its recorded % activity.
>  <compound>
COc1cccc([C@@H](C)NCc2ccc(C(C)(C)c3ccccc3)cc2)c1 [Compound 12O]

>  <quantity>
% activity

>  <reported>
94

$$$$
>  <compound>
CC(c1ccc(C(C)(C)C)cc1)N(C)CCCc1ccccc1 (stereo not shown) [Compound 14J]

>  <quantity>
% activity

>  <reported>
6

$$$$
>  <compound>
C[C@@H](N[C@H](C)c1cccc2ccccc12)c1ccccc1 [Compound 14O]

>  <quantity>
% activity

>  <reported>
102

$$$$

[Q] Write down the reported % activity of CCOC(=O)COc1cccc([C@@H](C)NCc2ccc3ccccc3c2)c1 [Compound 11D] , test system: human calcium receptor (Homo sapiens, UniProt P41180, R990G).
[A] 50

====

- tested system: human calcium receptor (Homo sapiens, UniProt P41180, R990G)
- Construct: expressed in transfected cells; host or cells: HEK 293
- protocol description: increases in [Ca^2+ ]i in HEK-293 cells expressing the human calcium receptor (fura-2 loaded HEK 293/pHuPCaR4.0 cells), % activity
- Assay type: cell-based
- condition label: 33 ng/mL
Tag: class 1 if measured % activity is not below 50%, class 0 if it is.

Solved entries:
>  <compound>
CC(C=Cc1ccccc1)NC(C)c1ccccc1 (mixture of isomers) [Compound 5D]

>  <assigned class>
class 0

$$$$
>  <compound>
C[C@@H](NCCc1ccccc1)c1cccc2ccccc12 [Compound 14N]

>  <assigned class>
class 1

$$$$
>  <compound>
COc1cccc([C@@H](C)N[C@@H](C)CCc2ccccc2)c1 [Compound 21E]

>  <assigned class>
class 1

$$$$
>  <compound>
COc1ccc(CNC(C)c2ccc(OC)c3ccccc23)cc1C (centres unmarked) [Compound 18C]

>  <assigned class>
class 1

$$$$

Alright, here's another compound for you.
[Q] Does the compound COc1ccc(CNC(C)c2cccc(I)c2)cc1C (centres unmarked) [Compound 23S] have recorded % activity that is 50% or more?
[A] class 1

====

- tested system: human calcium receptor (Homo sapiens, UniProt P41180, R990G)
- Construct: expressed in transfected cells; host or cells: HEK 293
- protocol description: increases in [Ca^2+ ]i in HEK-293 cells expressing the human calcium receptor (fura-2 loaded HEK 293/pHuPCaR4.0 cells), % activity
- Type: cell-based
- condition label: 3300 ng/mL
quantity: % activity (%)
Numbers only; they are read as %.

>  <compound>
CC(=O)c1ccc(CN[C@H](C)c2cccc3ccccc23)cc1 [Compound 17C]

>  <% activity (%)>
113

$$$$
>  <compound>
COc1cccc([C@@H](C)NCC=Cc2ccccc2C)c1 [Compound 12C]

>  <% activity (%)>
134

$$$$
>  <compound>
C[C@@H](NCc1ccc(OCc2ccccc2)cc1)c1cccc2ccccc12 [Compound 12I]

>  <% activity (%)>
115

$$$$
>  <compound>
CCc1cccc(C(C)NCc2ccc(OC)c(C)c2)c1 (centres unmarked) [Compound 23Z]

>  <% activity (%)>
129

$$$$
>  <compound>
COc1cccc([C@@H](C)N[C@@H](C)CCc2cccc(C(F)(F)F)c2)c1 [Compound 21X]

>  <% activity (%)>
119

$$$$

Okay, next one:
[Q] # query: % activity of entry COc1ccc(CNC(C)c2ccc(F)cc2)cc1C (centres unmarked) [Compound 23L]
[A] 107

====

% activity values, listed per item
- tested system: human calcium receptor (Homo sapiens, UniProt P41180, R990G)
- Construct: expressed in transfected cells; host or cells: HEK 293
- protocol description: increases in [Ca^2+ ]i in HEK-293 cells expressing the human calcium receptor (fura-2 loaded HEK 293/pHuPCaR4.0 cells), % activity
- Type: cell-based
- condition label: 330 ng/mL
Use % as the unit, but write only the number.

Worked cases, answers included:
>  <molecule>
COc1ccccc1CCCN[C@H](C)c1cccc2ccccc12 [Compound 16I]

>  <reported>
117

$$$$
>  <molecule>
CC(NCc1cccc2ccccc12)c1ccccc1 (stereo not shown) [Compound 4I]

>  <reported>
40

$$$$
>  <molecule>
COc1ccc(CNC(C)c2ccc(F)cc2)cc1C (stereo not shown) [Compound 23L]

>  <reported>
77

$$$$

[Q] API: value(readout= % activity, system= human calcium receptor (Homo sapiens, UniProt P41180, R990G), query= CCOC(=O)COc1cccc(C(C)NCc2ccc(OC)c(C)c2)c1 (stereo not shown) [Compound 24V] )
[A] 98

[Q] What reported % activity corresponds to CCc1ccc(CN[C@H](C)c2cccc3ccccc23)cc1 [Compound 13N] on human calcium receptor (Homo sapiens, UniProt P41180, R990G)?
[A] 114

[Q] Request: % activity, test system human calcium receptor (Homo sapiens, UniProt P41180, R990G), entry C[C@@H](NCc1ccc2c(c1)OCCO2)c1cccc2ccccc12 [Compound 13X]
[A] 102

[Q] Identify the measured % activity of CCCOc1ccc(CN[C@H](C)c2cccc3ccccc23)cc1 [Compound 13Q] for human calcium receptor (Homo sapiens, UniProt P41180, R990G).
[A] 95

[Q] Param readout= % activity; system= human calcium receptor (Homo sapiens, UniProt P41180, R990G); entry= COc1cccc([C@@H](C)NCC(C)c2ccccc2)c1 (stereo partly shown) [Compound 25M] ; returns value.
[A] 100

[Q] # value lookup — system human calcium receptor (Homo sapiens, UniProt P41180, R990G), readout % activity, item CC(NC(C)c1ccc(C(C)(C)C)cc1)c1ccccc1 (stereo not shown) [Compound 13E]
[A] 94

[Q] Test system human calcium receptor (Homo sapiens, UniProt P41180, R990G); read-out % activity; what value for COc1cccc([C@@H](C)N[C@H](C)CCc2cccc(C(F)(F)F)c2)c1 [Compound 21Y] ?
[A] 100

[Q] Record lookup: for human calcium receptor (Homo sapiens, UniProt P41180, R990G), what % activity belongs to CC(NCCCc1ccccc1)c1ccccc1 (stereo not shown) [Compound 3H] ?
[A] 84

[Q] So what % activity did COc1cccc([C@@H](C)N[C@@H](C)CCc2ccccc2)c1 [Compound 21E] get with human calcium receptor (Homo sapiens, UniProt P41180, R990G)?
[A] 94

[Q] Form entry - test system: human calcium receptor (Homo sapiens, UniProt P41180, R990G); read-out: % activity; molecule: CC(c1ccc(C(C)(C)C)cc1)N(C)CCCc1ccccc1 (stereo not shown) [Compound 14J]
[A] 41
